Assay: gradient 5% acetonitrile 3 min, to 50% in 2 min, to 85% in 15 min, held 3 min, 100 µL/min
Details: column: Zorbax Extend-C18 2.1 x 50 mm; eluents: water / acetonitrile, 0.1% formic acid
Binary classification by RP-LC retention time, with 900 s as an inclusive lower bound for label 1; all other cases are label 0.

Test whether the compound `CN(C)CCNC(=O)C1CCN(c2ccc(-c3cccs3)nn2)CC1` records RP-LC retention time of 900 s or higher.
label 0

Test whether the compound `CCCS(=O)(=O)Nc1cccc(-c2cn3ccc(C)cc3n2)c1` records RP-LC retention time of 900 s or higher.
label 0

Test whether the compound CCCN1CCN(C(=O)CC(c2cc(OC)c(OC)c(OC)c2)N2Cc3ccccc3C2=O)CC1 (stereo not given) records RP-LC retention time of 900 s or higher.
label 0

Test whether the compound `O=C(NCc1ccc2c(c1)OCO2)c1ncoc1-c1ccccc1C(=O)N1CCCC1` records RP-LC retention time of 900 s or higher.
label 0

Test whether the compound `CC(=O)N1CCCN(C2=NS(=O)(=O)C(c3ccc(C)c(C)c3)=C2C)CC1` records RP-LC retention time of 900 s or higher.
label 0

Test whether the compound `Cc1csc(-c2cc(S(=O)(=O)N(C)Cc3ccco3)c(C)n2C)n1` records RP-LC retention time of 900 s or higher.
label 1

Test whether the compound `O=C1NC2(CCN(C(=O)NCc3ccccc3)CC2)Nc2c(Cl)cccc21` records RP-LC retention time of 900 s or higher.
label 0

Test whether the compound `CNC(=O)Cc1csc(NC(=O)CN(C)c2nc3ccccc3s2)n1` records RP-LC retention time of 900 s or higher.
label 0

Test whether the compound `CCCC(=O)N1CCC2(CC1)NC(=O)c1ccccc1O2` records RP-LC retention time of 900 s or higher.
label 0

Test whether the compound `CCc1nccn1Cc1noc(-c2ccc(OC)cc2)n1` records RP-LC retention time of 900 s or higher.
label 0

Test whether the compound `Cc1cnc(C2CCC2)n1CCNC(=O)C1(c2ccccc2)CC1` records RP-LC retention time of 900 s or higher.
label 0

Test whether the compound `Cc1ccccc1NC(=O)c1csc(-c2cn(C)c3ncccc23)n1` records RP-LC retention time of 900 s or higher.
label 1

Test whether the compound `COc1ccc(NC(=O)c2nc(C)oc2C)cc1F` records RP-LC retention time of 900 s or higher.
label 0

Test whether the compound `Cc1oc(C2CCC2)nc1C(=O)NCc1cc(F)ccc1F` records RP-LC retention time of 900 s or higher.
label 1

Test whether the compound `COc1ccc(Nc2ccc3c(=O)c(-c4ccccc4OC)c(C)oc3c2)cc1` records RP-LC retention time of 900 s or higher.
label 1

Test whether the compound `CN1C(=O)COc2ccc(-c3csc(NC(=O)C(C)(C)C)n3)cc21` records RP-LC retention time of 900 s or higher.
label 0

Test whether the compound CCCCCOC(=O)Nc1nc(=O)n([C@@H]2O[C@H](C)[C@H](O)C2O)cc1F (stereo not given in full) records RP-LC retention time of 900 s or higher.
label 0
